Examples of binders with documented phage ELISA signal ratio follow.
- target-under-test: T1, BTN1A1 285-479 SPRY (domain begin residue: 285, domain end residue: 479), Q13410
- T1 chain: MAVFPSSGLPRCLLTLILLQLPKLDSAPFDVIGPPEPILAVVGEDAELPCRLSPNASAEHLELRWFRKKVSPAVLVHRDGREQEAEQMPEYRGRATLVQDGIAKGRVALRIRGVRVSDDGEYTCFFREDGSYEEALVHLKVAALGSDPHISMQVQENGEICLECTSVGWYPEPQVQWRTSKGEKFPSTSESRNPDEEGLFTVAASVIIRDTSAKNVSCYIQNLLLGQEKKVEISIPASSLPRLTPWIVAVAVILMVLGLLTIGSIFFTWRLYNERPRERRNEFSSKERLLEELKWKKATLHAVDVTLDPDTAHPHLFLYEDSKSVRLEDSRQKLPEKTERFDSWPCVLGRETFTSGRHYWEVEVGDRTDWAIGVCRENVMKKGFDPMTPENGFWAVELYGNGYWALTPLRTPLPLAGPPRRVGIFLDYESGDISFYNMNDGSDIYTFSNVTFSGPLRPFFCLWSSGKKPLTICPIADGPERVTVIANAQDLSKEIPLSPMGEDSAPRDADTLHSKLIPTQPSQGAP
- experiment-notes: phage ELISA signal ratio (GST-PRM binding over GST background); higher = stronger binding of peptide-phage to the PRM
Kindly provide the number alone.

| binder | meas-value |
| --- | --- |
| DWQYTYMPDMIPDWVM | 20.7 |
| QTWQERQAMMMHMMQW | 15.7 |
| GGIDWQGVYMKHFEMT | 20.6 |

Query: Entry FEQHWMQKQMAVRQIV needs its phage ELISA signal ratio filled in; supply it.
Reply: 13.6

Query: Entry SWDHWDEKMTSMVVFM needs its phage ELISA signal ratio filled in; supply it.
Reply: 9.92

Query: Entry LSSLETYKNHGLMFMF needs its phage ELISA signal ratio filled in; supply it.
Reply: 22.5

Query: Entry DVTWWSERAQATLVMM needs its phage ELISA signal ratio filled in; supply it.
Reply: 12.4

Query: Entry PKTGEPWHPWIPHWLA needs its phage ELISA signal ratio filled in; supply it.
Reply: 8.34
